# System: P. falciparum strain Dd2
# Measurement Description: Malstat assay, growth inhibition of P. falciparum Dd2
# Format: cell-based, Plasmodium falciparum
# Condition Label: Plasmodium falciparum, DD2, read-out: Mean IC50 ± SD Dd2
Parameter Measured: IC50

1. O=C1c2cc(Br)ccc2-n2c1nc1ccc(Cl)cc1c2=O
123 nM
2. O=C1c2cc([N+](=O)[O-])ccc2-n2c1nc1cc(Br)ccc1c2=O
101 nM
3. O=C1c2cc(Br)ccc2-n2c1nc1ccccc1c2=O
95 nM
4. O=C1c2cc(F)ccc2-n2c1nc1ccccc1c2=O
100 nM
5. COc1cc2nc3n(c(=O)c2cc1OC)-c1ccc(Br)cc1C3=O
761 nM
6. O=C(O)c1ccc2c(=O)n3c(nc2c1)C(=O)c1cc(Br)ccc1-3
> 50000 nM
7. Cc1ccc2c(c1)C(=O)c1nc3ccccc3c(=O)n1-2
216 nM
8. O=C1c2cc([N+](=O)[O-])ccc2-n2c1nc1ccc(Cl)cc1c2=O
91 nM
9. O=C(O)c1ccc2c(=O)n3c(nc2c1)C(=O)c1cc([N+](=O)[O-])ccc1-3
> 50000 nM
10. O=C1c2ccccc2-n2c1nc1cc(Cl)ccc1c2=O
165 nM
11. O=C1c2cc([N+](=O)[O-])ccc2-n2c1nc1ccccc1c2=O
165 nM
12. Cc1cccc2c1C(=O)c1nc3ccccc3c(=O)n1-2
602 nM
13. CCN(CC)CCCC(C)Nc1ccnc2cc(Cl)ccc12 (centres unmarked) [CQ, Chloroquine, reference compound]
294 nM
14. O=C1c2cc(Cl)ccc2-n2c1nc1ccccc1c2=O
172 nM
15. O=C1c2ccccc2-n2c1nc1ccccc1c2=O [TRYP, indolo-[2,1-b]-quinazoline-6, 12-Dione, reference compound]
114 nM
16. COc1cc2nc3n(c(=O)c2cc1OC)-c1ccc([N+](=O)[O-])cc1C3=O
134 nM
17. COC(=O)c1ccc2c(=O)n3c(nc2c1)C(=O)c1cc(Br)ccc1-3
287 nM
18. COC(=O)c1ccc2c(=O)n3c(nc2c1)C(=O)c1cc([N+](=O)[O-])ccc1-3
166 nM
19. O=C1c2cc(Br)ccc2-n2c1nc1cc(Cl)ccc1c2=O
238 nM
20. O=C1c2cc([N+](=O)[O-])ccc2-n2c1nc1cc(Cl)ccc1c2=O
31 nM

----------
# Measurement Description: Solubility in DMSO
# Type: physicochemical
# Condition Label: organic solvent or mixture
Parameter Measured: solubility (mM)

1. O=C1c2cc([N+](=O)[O-])ccc2-n2c1nc1cc(Cl)ccc1c2=O
10

Source of measurements: paper PMC4417838
